The measured values listed here are drawn from a melting point compilation (Tetko et al.; mined from patent text by program, amines drawn as free bases though some values may be those of a salt).

measured.quantity: melting point

>>> df
                                   molecule  reported_measurement
0  CCC1COC(NC(=O)c2ccc(Cl)c(Cl)c2)C2CCCCN12 (centres undefined)                214 °C
1  CC(Oc1ccc(Cl)c(Cl)c1)c1nnc(N)s1 (centres undefined)         136 to 138 °C
2  COC(=O)c1ccc(C(=O)NS(=O)(=O)c2ccc(CCNC(=O)CCC(C)C)cc2)cn1         204 to 206 °C
3      O=c1c2c([nH]c3nc(N4CCCCC4)nn13)CCCS2              > 350 °C
4  COc1cc(Cl)c(-n2c(=O)cc(C(F)(F)F)n(C)c2=O)c2sc(Cl)nc12         185 to 187 °C
5  COc1ccc(SSc2ccc(OC)cc2C(=O)NC(CC(C)C)C(=O)O)c(C(=O)NC(CC(C)C)C(=O)O)c1 (centres undefined)         168 to 169 °C
6  NC1=NC(c2ccc(OC(F)F)cc2)(c2cccc(-c3cccnc3F)c2)C2=NCC3(CCC3)CN12 (centres undefined)         220 to 226 °C
7  CC(=O)NCc1ccc(CN2CCN(c3ccc(F)cc3NC(C)=O)CC2)cc1         148 to 150 °C
8  CCC(C)(C)c1cc(C(C)(C)CC)c2c(c1)C1(O)C(=O)c3ccccc3C1(O)O2 (centres undefined)         195 to 222 °C

* * *

Listed next: entries and their corresponding melting point.
measured.quantity: melting point

                                    compound  measured_quantity  reported_measurement
 0  Cc1c(Nc2c(C#N)cncc2-c2nccs2)ccc2[nH]ccc12      melting point         245 to 247 °C
 1  CC(C)(c1ccc(Oc2cccc(N)c2)cc1)c1ccc(Oc2cccc(N)c2)cc1      melting point         106 to 108 °C
 2  O=c1c2c(Cl)cc(Cl)cc2n(Cc2ccccc2)c(=O)n1Cc1ccccc1Br      melting point         129 to 132 °C
 3  CN1CCC(N2C(=O)CN=C(c3ccccc3F)c3cc(Cl)ccc32)CC1      melting point         145 to 146 °C
 4                Cc1cc(F)nc(-c2ccc(F)cc2)c1      melting point                 49 °C
 5              COc1ccc(Br)cc1OC(=O)c1ccccc1      melting point           73 to 75 °C
 6  CCCCOC1(N)C=CC(NC(=O)CBr)=CC1 (configuration not stated)      melting point         131 to 134 °C
 7             Cc1ccccc1C=CC(=O)C=Cc1ccccc1C      melting point           94 to 96 °C
 8            Nc1nc2ccccc2c2c1ncn2CC1(O)CCC1      melting point              > 250 °C
 9  CC(Oc1cccc2ccoc12)C(N)=NO (configuration not stated)      melting point           92 to 94 °C
10              COc1ccc2cc(C(=O)O)sc(=O)c2c1      melting point         291 to 292 °C
11                        Oc1noc2ccc(Cl)cc12      melting point         219 to 222 °C
12                 COc1nc(N)nc(Cl)c1C1=NCCN1      melting point                212 °C
13  Cn1c(=O)c2c(nc(CCc3cccc(N)c3)n2C)n(C)c1=O      melting point         158 to 160 °C
14  CCOC(=O)c1cn(-c2ccc(C(F)(F)F)cn2)nc1C(C)C      melting point           94 to 95 °C
15                   COP(=S)(OC)Oc1nsc(SC)n1      melting point                 45 °C
16  Nc1ccc(Oc2ccc(Oc3ccc(S(=O)(=O)c4ccc(Oc5ccc(Oc6ccc(N)cc6)cc5)cc4)cc3)cc2)cc1      melting point         212 to 214 °C
17  N#Cc1cc2c(c(N3CCN(CCCCN4C(=O)c5ccccc5S4(=O)=O)CC3)c1)OCCO2      melting point         162 to 164 °C
18  COc1cnc(-c2cccn3nc(Nc4ccc(C5CCN(C(=O)OC(C)(C)C)CC5)cc4)nc23)cn1      melting point         193 to 195 °C
19             COc1cc2cc(C(N)=O)c(N)nc2cc1OC      melting point                275 °C
20  CC(CC1=C(c2cccc(O)c2)CCCNC1=O)N1CCCCC1 (configuration not stated)      melting point         218 to 220 °C
21  COc1ccc2c(c1)CC(n1cc[nH]c1=S)CC2 (configuration not stated)      melting point         271 to 273 °C
